Tested on: Malme-3M
Assay: NCI tumour cell line growth inhibition, 48 h
The source made the active and inactive calls. No stated cut-off is given here; in the data, active = GI50 up to about 1.1 µM and inactive = higher.
Reply using exactly one outcome from 1.0 for active, 0.0 for inactive

Some solved entries appear below for comparison.
Molecule: C/C(=N\N=C(/S)N(C)C)c1cccnn1
Class: 1.0
--
Molecule: Cc1ccc(C(=O)O)c(CC2Cc3c(C)cccc3C2=O)c1 (stereo not given)
Class: 0.0
--
Molecule: CCCCCCc1cn([C@H]2C[C@H](O)[C@@H](CO)O2)c(=O)[nH]c1=O
Class: 0.0
--
Molecule: CN(C)/N=C(\CCN1CCCC1)CC(c1ccccc1)c1c(O)c2ccccc2oc1=O (stereo not given)
Class: 0.0

Now look at this one.
Record lookup: outcome of this test for COc1ccc(NC(=O)CC(=O)N2N=C(C)C(/N=N/c3ccc(C(=O)O)cc3)C2=O)cc1 (stereo not given) ?
0.0

---

Test system: SK-MEL-5
Assay: NCI tumour cell line growth inhibition, 48 h
The source made the active and inactive calls. Cut-off read from the data, not from the text of the source: active = GI50 up to about 1.1 µM and inactive = higher.
This section presents compounds with their documented GI50 values.

Past entries and their recorded results:
Compound: CN(C)c1ccc(/C=C/c2ccc3ccccc3[n+]2C)cc1
GI50: 3.06 µM (inactive)
//
Compound: COc1ccc(NC(=O)CC(=O)N/N=C/c2ccc(N(CCC#N)S(=O)(=O)c3ccccc3)cc2)cc1
GI50: > 100 µM (inactive)
//
Compound: Cc1c(NC(=S)NN)c(=O)n(-c2ccccc2)n1C
GI50: > 100 µM (inactive)

Please examine the following record next.
Request body: readout GI50, system SK-MEL-5, query CCOC(=O)c1ccc(C(=O)C(C(C)=O)C(=O)OC(C)(C)C)n1C (stereo not given) . Return the value.
> 100 µM (inactive)

---

Tested on: M14
Assay: NCI tumour cell line growth inhibition, 48 h
The source made the active and inactive calls. No stated cut-off is given here; in the data, active = GI50 up to about 1.1 µM and inactive = higher. Non-standard residues stand in square brackets, D forms with d. Residues, ends and D or L forms follow the SMILES beside them.
Reply using exactly one outcome from 1 (yes) for active, 0 (no) for inactive

Some solved entries appear below for comparison.
Molecule: CC[C@@]1(O)C[C@H](OC2CC(N(C)C)C(OC3CC(O)C(OC4CCC(=O)C(C)O4)C(C)O3)C(C)O2)c2c(cc3c(c2O)C(=O)c2c(O)ccc(O)c2C3=O)[C@H]1C(=O)OC (some centres not stated)
Class: 1 (yes)
--
Molecule: CC1=CC[C@@]2(C)CC[C@](O)(C(C)C)C2C(OC(=O)c2ccccc2)C1 (some centres not stated)
Class: 0 (no)
--
Molecule: N#C/C(=N\c1ccccc1N(C(=O)c1ccccc1)C(=O)c1ccccc1)c1ccccc1
Class: 0 (no)
--
Molecule: CC(C)(C)NC(=O)CCC1C(C(=O)NC(C)(C)C)C2(Cl)C(Cl)=C(Cl)C1(Cl)C2(Cl)Cl (configuration not stated)
Class: 0 (no)
--
Molecule: O=C(c1ccccc1)C1C[C@H]2CO[C@H](c3ccccc3)N2C1=O (some centres not stated)
Class: 0 (no)

Record lookup: outcome of this test for C/C(=N\NC(=S)N1CCN(C)CC1)c1nc2cccnc2[nH]1 ?
0 (no)

Record lookup: outcome of this test for CSCC[C@H](NC(=O)[C@@H](N)CC(N)=O)C(=O)N[C@@H](Cc1c[nH]c2ccccc12)C(=O)N[C@@H](CCC(N)=O)C(=O)N[C@@H](CCC(=O)O)C(=O)N[C@H](C(=O)NCC(=O)N[C@@H](CCCCN)C(=O)N[C@H](C)C(=O)O)C(C)C (H-NMWQEVGK[dA]-OH) ?
0 (no)

Record lookup: outcome of this test for Cc1ccc(-n2c(N)c(C#N)c3[nH]nc(N)c3c2=O)cc1 ?
0 (no)

---

System: HCC 2998
Assay: NCI tumour cell line growth inhibition, 48 h
Activity calls are given as the source filed them. Cut-off read from the data, not from the text of the source: active = GI50 up to about 1.1 µM and inactive = higher.
Readout label: GI50

Past entries and their recorded results:
Compound: Cc1cc2nc3ccc(N(C)C)cc3[s+]c2cc1N [TOLONIUM CHLORIDE]
Readout label: GI50
Data value: 3.7 µM (inactive)
//
Compound: O=C1c2ccccc2C(=O)N1CCSCC(CO)SCCN1C(=O)c2ccccc2C1=O (stereo not given)
Readout label: GI50
Data value: > 100 µM (inactive)
//
Compound: COC(=O)C1=C(O)C(O)=C(C(=O)OC)C1
Readout label: GI50
Data value: > 100 µM (inactive)
//
Compound: COc1ccc(-c2nc(-c3cc4c(ccc5ccccc54)oc3=O)cs2)cc1
Readout label: GI50
Data value: > 100 µM (inactive)
//
Compound: CCN1CCN(c2ccc(Nc3ccnc4ccc5c(nnn5C)c34)cc2)CC1
Readout label: GI50
Data value: 1.58 µM (inactive)

So what's the measured GI50 for this one? CC(C)=CCNc1ncnc2c1ncn2CCC#N
> 100 µM (inactive)

So what's the measured GI50 for this one? Cc1ccc(F)cc1NC(=O)O/N=C(\Cl)C(C)C
16.2 µM (inactive)

So what's the measured GI50 for this one? Cc1ccc(C2=Nc3cccc4cccc(c34)N2)cc1
> 100 µM (inactive)

So what's the measured GI50 for this one? Cc1cn(C2CC(/[N+]([O-])=N\Nc3ccc([N+](=O)[O-])cc3)C(CO)O2)c(=O)[nH]c1=O (stereo not given)
40.7 µM (inactive)

So what's the measured GI50 for this one? O=C(Cc1ccccc1)Oc1ccc2c(-c3ccccc3)c(C(=O)Nc3ccc(Cl)cc3)c(=O)oc2c1
> 100 µM (inactive)

---

Test system: UO-31
Assay: NCI tumour cell line growth inhibition, 48 h
Calls of active or inactive are those of the source. No stated cut-off is given here; in the data, active = GI50 up to about 1.1 µM and inactive = higher. Starred links: 1 amine or outer side, 2 acyl side, 3 side chain; linkers in the order of their positions; H or OH if unused. Non-standard residues stand in square brackets, D forms with d. Residues, ends and D or L forms follow the SMILES beside them. ξ: configuration not given here. X24 = O=C(C(CC(O)CO)O[*:1])[*:2]; Ile(3ξ) = CCC(C)[C@H](N)C(=O)O; NMeV = CN[C@H](C(=O)O)C(C)C; NMeA = CN[C@@H](C)C(=O)O; βAla = NCCC(=O)O
This section presents molecules with their documented GI50 values.

Past entries and their recorded results:
Molecule: CCCCCCc1cn([C@H]2C[C@H](O)[C@@H](CO)O2)c(=O)[nH]c1=O
GI50: > 100 µM (inactive)
//
Molecule: CC(C)(Cl)C(Br)CC/C(CBr)=C(/Cl)CCl.CC(C)(Cl)C(Br)CC/C(CBr)=C(\Cl)CCl (stereo not given)
GI50: 1.95 µM (inactive)
//
Molecule: CCC(C)[C@@H]1NC(=O)[C@@H]2CCCN2C(=O)C(CC(O)CO)OC(=O)CCNC(=O)[C@H](C)N(C)C(=O)[C@H](C(C)C)N(C)C1=O (stereo not given in full) (cyclo([Ile(3ξ)][NMeV][NMeA][βAla][X24]P))
GI50: > 100 µM (inactive)
//
Molecule: Cc1c(/C=N\NC(=S)NCCNC(=S)N/N=C\c2c(C)n(C)n(-c3ccccc3)c2=O)c(=O)n(-c2ccccc2)n1C
GI50: > 100 µM (inactive)
//
Molecule: CCOC(=O)c1ccc(NCc2ccc3nc(OC)c(OC)nc3c2)cc1
GI50: > 100 µM (inactive)
//
Molecule: CCN(CC)C(=S)SS(=O)(=O)c1ccc(NC(C)=O)cc1
GI50: 19.5 µM (inactive)
//
Molecule: NC(CO)c1ccc(OCc2ccccc2)cc1 (stereo not given)
GI50: 44.3 µM (inactive)
//
Molecule: C=C1CCC23CC(CC[C@@H]2[C@@]12C[C@@H](c1ccoc1)OC2=O)OC3=O (stereo not given in full)
GI50: > 100 µM (inactive)

So what's the measured GI50 for this one? c1ccc2c3c(c(N4CCOCC4)nc2c1)CCCC3
41.2 µM (inactive)

So what's the measured GI50 for this one? CC(C)C(C/C=C1/CC(CO)(COC(=O)C(C)(C)C)OC1=O)C(C)C (stereo not given)
4.07 µM (inactive)

So what's the measured GI50 for this one? O=C(c1ccc(Cl)cc1Cl)N(Cc1cccnc1)C(=S)N(Cc1cccnc1)C(=O)c1ccc(Cl)cc1Cl
4.26 µM (inactive)

So what's the measured GI50 for this one? COc1ccc2nc(C)cc(NCCCCCCCCCNc3cc(C)nc4ccc(OC)cc34)c2c1
13.6 µM (inactive)

---

System: SF-268
Experiment: NCI tumour cell line growth inhibition, 48 h
Active and inactive are the calls of the source. No stated cut-off is given here; in the data, active = GI50 up to about 1.1 µM and inactive = higher.
Readout label: GI50

Compound: COC(=O)CC(=O)C[P+](c1ccccc1)(c1ccccc1)c1ccccc1
GI50: > 218 µM (inactive)
--
Compound: N#CCCc1nc2ccc(Br)cc2c(=O)n1-c1ccc(O)c([N+](=O)[O-])c1
GI50: 24.1 µM (inactive)
--
Compound: Cn1c(N)c(/C=C/C(=O)Oc2ccccc2)c(=O)n(C)c1=O
GI50: 31.7 µM (inactive)

So what's the measured GI50 for this one? C=C1CC(COc2ccc3c(C)c(Cl)c(=O)oc3c2)(c2ccccc2)OC1=O (stereo not given)
4.46 µM (inactive)

So what's the measured GI50 for this one? CC1(c2cccc(Cl)c2)CC(c2cccc(Cl)c2)=C(C#N)C(=C(C#N)C#N)N1 (stereo not given)
4.62 µM (inactive)
